- test: gradient 5% acetonitrile 3 min, to 50% in 2 min, to 85% in 15 min, held 3 min, 100 µL/min
- stated.conditions: column: Zorbax Extend-C18 2.1 x 50 mm; eluents: water / acetonitrile, 0.1% formic acid
observation.type: RP-LC retention time (s)

P. O=C(CSc1ccc(S(=O)(=O)C2CCCCC2)nn1)NCc1cc(F)cc(F)c1
Q. CS(=O)(=O)N1CCN(CCNC(=O)NC(c2ccccc2)c2ccccc2)CC1
**Q:** Lab notebook, comparison: P versus Q , higher RP-LC retention time goes to which? Output the label that corresponds to your choice.
**A:** P

* * *

- test: gradient 5% acetonitrile 3 min, to 50% in 2 min, to 85% in 15 min, held 3 min, 100 µL/min
- stated.conditions: column: Zorbax Extend-C18 2.1 x 50 mm; eluents: water / acetonitrile, 0.1% formic acid
observation.type: RP-LC retention time (s)

compound	observed
COc1cc(OC)cc(-c2cc3cnc(N)nc3nc2NC(=O)NC(C)(C)C)c1	814
CN(Cc1nc2ccccc2n1CCc1ccccc1)C(=O)c1ccco1	706
COc1ccc(-c2nc3cnccn3c2Nc2cc(C)cc(C)c2)cc1OC	874
COc1ccc(S(=O)(=O)N2CCN(c3cc(C)nc(Nc4ccc(C)cc4)n3)CC2)cc1Cl	801
CC(=O)N1c2ccc(S(=O)(=O)N3CCCCCC3)cc2CC1C(=O)NCc1ccc(F)cc1 (centres undefined)	890
O=C(c1cc(-c2ccccc2Cl)nc2ccccc12)N1CCN(c2ccccn2)CC1	676
CCCc1cc(N2CCN(C(=O)Cc3ccsc3)CC2)nc2nnc(C)n12	627
CCCn1c(=O)c(C)nc2cc(-c3noc(/C=C/c4cccs4)n3)ccc21	792
Cc1nc(C)c(-c2nnc(NC(=O)NCc3cccs3)o2)s1	672
COc1cc(NC(=O)Cn2nc([N+](=O)[O-])cc2C)c(OC)cc1Cl	829
Cc1cc(Cl)ccc1NC(=O)N1CCC2(CC1)c1nccn1CCN2C	612
CC(C)OCCCNC(=O)C1CCN(c2nc3cccnc3s2)CC1	659
O=C(CSc1ccc(F)cc1)Nc1cccc2ccc(-n3ccnc3)nc12	659
Cc1cccc(Nc2nc(C(=O)NCCc3cccs3)nc3ccccc23)c1	863
Cc1ccc(CNC(=O)c2cc(C)n3nc(-c4ccccn4)cc3n2)cc1	924
O=C(c1ccc(=O)n(CCN2CCOCC2)c1)N1CCC(Cc2ccccc2)CC1	637
CCOC(=O)c1csc(NC(=O)CC[C@H]2NC(=O)c3ccccc3NC2=O)n1	648
COc1ccc(CNC(=O)C2CC(=O)N(CCc3c[nH]c4ccc(Cl)cc34)C2)cc1 (centres undefined)	834
O=C1Cc2cc(NC(=O)NC(c3ccccc3)c3ccccc3)ccc2N1	706

Data origin, for the record: the METLIN SMRT retention time set (Domingo-Almenara et al. 2019)
